Values from patent US20200079833A1

# STUDY SYSTEM: GLP-1 receptor (GLP-1R), primary cAMP assay (human, UniProt P43220 24-463)
# PROTOCOL DETAILS: cell-based or functional assay
Starred links: 1 amine or outer side, 2 acyl side, 3 side chain; linkers in the order of their positions; H or OH if unused. Non-standard residues stand in square brackets, D forms with d. Groups on a side chain read outwards from the residue. Primed or numbered codes have the meaning given here. No end group written: not given here. *: point of attachment. γGlu = O=C(O)[C@H](CCC(=O)[*:2])N[*:1]; αMeF = C[C@](N)(Cc1ccccc1)C(=O)O; Myristoyl = CCCCCCCCCCCCCC(=O)*; αMeK = C[C@](N)(CCCCN)C(=O)O; Lauroyl = CCCCCCCCCCCC(=O)*; αMeS = C[C@](N)(CO)C(=O)O; PEG2′ = not defined here; Aib = CC(C)(N)C(=O)O
RECORDED METRIC: Primary assay EC50 (cAMP), n2 (pM)

I. H[Aib]EGS[αMeF]TSDV[αMeS]SYK([PEG2′-PEG2′-γGlu-Lauroyl])EGEAA[αMeK]EFIK([PEG2′-PEG2′-γGlu-Lauroyl])WVVEGG-NH2 [SEQ ID NO: 268]
II. H[Aib]EGS[αMeF]TSDV[αMeS]SK([PEG2′-PEG2′-γGlu-Myristoyl])LEGEAA[αMeK]E[αMeF]IAK([PEG2′-PEG2′-γGlu-Myristoyl])VVEGG-NH2 [SEQ ID NO: 408]
Of I and II , whose reported Primary assay EC50 (cAMP), n2 is numerically smaller? Kindly state the label of the option you pick.
I
